# subject.of.test: UniProtKB P53779
# Sequence (P53779 whole entry, looked up): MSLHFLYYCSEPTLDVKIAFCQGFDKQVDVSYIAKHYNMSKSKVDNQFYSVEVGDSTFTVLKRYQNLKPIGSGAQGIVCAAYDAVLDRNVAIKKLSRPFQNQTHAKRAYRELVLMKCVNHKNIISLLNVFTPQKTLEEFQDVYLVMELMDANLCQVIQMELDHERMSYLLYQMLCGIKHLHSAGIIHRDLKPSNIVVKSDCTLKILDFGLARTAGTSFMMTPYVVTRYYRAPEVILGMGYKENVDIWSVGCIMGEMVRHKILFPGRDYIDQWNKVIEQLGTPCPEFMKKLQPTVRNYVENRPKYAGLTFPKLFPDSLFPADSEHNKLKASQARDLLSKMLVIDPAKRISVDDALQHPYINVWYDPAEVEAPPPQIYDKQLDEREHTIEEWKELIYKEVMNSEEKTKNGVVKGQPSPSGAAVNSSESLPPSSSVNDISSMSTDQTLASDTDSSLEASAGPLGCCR
# assay.info: Free Choice Kinase Assay Projects, Flashplate
# experimental.context: compound 10.0 µM; ATP 0.3 µM
observed.property: residual activity (%)
The reply should contain only the number, in %.

Observe how each entry below is paired with its result.
structure.notation	residual activity (%)
Fc1ccc(-c2[nH]c(CCc3ccccc3)nc2-c2ccncc2)cc1	14
CSc1nc(-c2ccnc(F)c2)c(-c2ccc(F)cc2)[nH]1	48
Fc1ccc(-c2[nH]c(SCCCc3ccccc3)nc2-c2ccncc2)cc1	56

Now for a further compound.
Exercise: Entry "Fc1ccc(-c2[nH]c(SCc3cccc4ccccc34)nc2-c2ccncc2)cc1" , system UniProtKB P53779: what residual activity was measured?
Solution: 17

* * *

# subject.of.test: AURKA (human)
# assay.info: Free Choice Kinase Assay Projects, Flashplate
# experimental.context: compound 10.0 µM; ATP 10 µM
Bucketed by reported residual activity, buckets being lower segment = under 50%, middle segment = from 50% up to 80%, upper segment = 80% and over

Please review the entries below; each comes with its answer.
molecule	category
CSc1nc(-c2ccnc(NC(C)=O)c2)c(-c2ccc(F)cc2)n1C	middle segment
CSc1nc(-c2ccnc(N(C(=O)C3CC3)C(=O)C3CC3)c2)c(-c2ccc(F)cc2)n1C	middle segment
Oc1ccc(CSc2nc(-c3ccncc3)c(-c3ccc(F)cc3)[nH]2)cc1	middle segment
CSc1nc(-c2ccnc(NC(=O)C3CCCC3)c2)c(-c2ccc(F)cc2)n1C	middle segment

Exercise: Input "Fc1ccc(-c2[nH]c(CCc3ccccc3)nc2-c2ccncc2)cc1" ; output its category
Solution: lower segment

Exercise: Request: "Oc1ccccc1CSc1nc(-c2ccncc2)c(-c2ccc(F)cc2)[nH]1"
Solution: middle segment

* * *

# subject.of.test: PLK4 (human) (UniProt O00444)
# Sequence (O00444 whole entry, looked up): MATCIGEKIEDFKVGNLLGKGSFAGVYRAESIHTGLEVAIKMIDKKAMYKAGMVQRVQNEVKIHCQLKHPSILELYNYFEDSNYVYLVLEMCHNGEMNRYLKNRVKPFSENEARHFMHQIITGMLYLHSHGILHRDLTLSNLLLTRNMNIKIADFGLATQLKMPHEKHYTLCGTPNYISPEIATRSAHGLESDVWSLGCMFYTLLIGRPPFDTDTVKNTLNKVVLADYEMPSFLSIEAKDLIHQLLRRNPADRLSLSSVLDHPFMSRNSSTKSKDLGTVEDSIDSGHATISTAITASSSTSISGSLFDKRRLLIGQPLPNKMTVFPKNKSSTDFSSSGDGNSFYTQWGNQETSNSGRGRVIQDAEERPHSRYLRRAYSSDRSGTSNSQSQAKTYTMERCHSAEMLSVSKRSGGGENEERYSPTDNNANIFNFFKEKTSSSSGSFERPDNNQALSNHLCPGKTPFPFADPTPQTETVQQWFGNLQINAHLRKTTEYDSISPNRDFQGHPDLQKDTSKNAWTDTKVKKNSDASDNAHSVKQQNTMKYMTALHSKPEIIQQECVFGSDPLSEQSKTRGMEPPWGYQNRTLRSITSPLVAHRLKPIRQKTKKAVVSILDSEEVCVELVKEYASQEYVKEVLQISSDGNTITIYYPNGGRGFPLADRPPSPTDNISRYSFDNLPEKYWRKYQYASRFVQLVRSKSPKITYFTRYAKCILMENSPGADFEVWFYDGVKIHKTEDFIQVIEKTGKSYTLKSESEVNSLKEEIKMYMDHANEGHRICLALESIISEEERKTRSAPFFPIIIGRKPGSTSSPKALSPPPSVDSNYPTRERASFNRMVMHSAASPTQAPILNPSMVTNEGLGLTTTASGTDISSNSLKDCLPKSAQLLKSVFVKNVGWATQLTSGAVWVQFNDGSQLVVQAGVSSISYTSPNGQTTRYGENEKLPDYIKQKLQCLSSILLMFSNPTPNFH
# assay.info: Free Choice Kinase Assay Projects, Flashplate
# experimental.context: compound 10.0 µM; ATP 0.3 µM
Checkbox rule: residual activity lower than 30% = y; residual activity not lower than 30% = n.

Please review the entries below; each comes with its answer.
molecule	category
COc1ccc(C(=O)Nc2cc(-c3nc(SC)n(C)c3-c3ccc(F)cc3)ccn2)cc1	y
CSc1nc(-c2ccnc(NC(=O)C3CC3)c2)c(-c2ccc(F)cc2)n1C	n
Fc1ccc(-c2[nH]c(SCCc3ccccc3)nc2-c2ccncc2)cc1	n

Exercise: Is residual activity strictly under 30% for the entry "CSc1nc(-c2ccnc(NC(=O)C3CCCC3)c2)c(-c2ccc(F)cc2)n1C" ?
Solution: n

Exercise: Request: "Fc1ccc(-c2[nH]c(SCC3CCCCC3)nc2-c2ccncc2)cc1"
Solution: n

Exercise: Request: "Fc1ccc(-c2[nH]c(SCc3ccccc3)nc2-c2ccnc(F)c2)cc1"
Solution: n

Exercise: Request: "CSc1nc(-c2ccnc(N(C(=O)C3CC3)C(=O)C3CC3)c2)c(-c2ccc(F)cc2)n1C"
Solution: n

Exercise: Request: "CSc1nc(-c2ccnc(F)c2)c(-c2ccc(F)cc2)[nH]1"
Solution: n

Exercise: Request: "CSc1ccc(CSc2nc(-c3ccncc3)c(-c3ccc(F)cc3)[nH]2)cc1"
Solution: y

Exercise: Request: "Fc1ccc(-c2[nH]c(SCc3ccccc3)nc2-c2ccnc(Cl)c2)cc1"
Solution: y

Exercise: Request: "Fc1ccc(-c2[nH]c(CCc3ccccc3)nc2-c2ccncc2)cc1"
Solution: y

Exercise: Request: "CSc1ccccc1CSc1nc(-c2ccncc2)c(-c2ccc(F)cc2)[nH]1"
Solution: n

Exercise: Request: "Oc1cccc(CSc2nc(-c3ccncc3)c(-c3ccc(F)cc3)[nH]2)c1"
Solution: n

Exercise: Request: "Oc1ccccc1CSc1nc(-c2ccncc2)c(-c2ccc(F)cc2)[nH]1"
Solution: n

Exercise: Request: "On1c(/C=C/c2ccccc2)nc(-c2ccncc2)c1-c1ccc(F)cc1"
Solution: y

Exercise: Request: "CSc1ccc(CSc2nc(-c3ccncc3)c(-c3ccc(Br)cc3)[nH]2)cc1"
Solution: n

Exercise: Request: "On1c(CCc2ccccc2)nc(-c2ccncc2)c1-c1ccc(F)cc1"
Solution: y

Exercise: Request: "Fc1ccc(-c2[nH]c(/C=C/c3ccccc3)nc2-c2ccncc2)cc1"
Solution: y

Exercise: Request: "Fc1ccc(-c2[nH]c(SCc3cccc4ccccc34)nc2-c2ccncc2)cc1"
Solution: y

Exercise: Request: CC(Nc1cc(-c2nc(SCc3ccccc3)[nH]c2-c2ccc(F)cc2)ccn1)c1ccccc1 (stereo unspecified)
Solution: y

Exercise: Request: "Fc1ccc(-c2[nH]c(SCCCc3ccccc3)nc2-c2ccncc2)cc1"
Solution: n

# credit: the kinase profiling compilation of Christmann-Franck et al. (2016)
